Tested on: A. lugdunensis (AcaVNAK02)
run-description: Amoebicidal activity assay on trophozoites
Type: cell-based
recorded-conditions: Acanthamoeba lugdunensis, 24 h of incubation
Method: The activity against two clinical isolates of free-living amoebae, Acanthamoeba lugdunensis (strain AcaVNAK02) and Acanthamoeba quina (strain AcaVNAK03), both belonging to the T4 genotype, was tested in vitro as previously described. […] The reduction of trophozoites was recorded after 24 h by counting the surviving cells in a Bürker–Türk hemocytometer. […] The viability of trophozoites was determined by trypan blue exclusion. […]
reported-property: EC50 (µM)

[
  {
    "molecule": "O=C(O)C=Cc1ccc(O)c(O)c1 [CA, 3-(3,4-dihydroxyphenyl)-2-propenoic acid, reference compound]",
    "qualifier-operator": ">",
    "result": 100000
  },
  {
    "molecule": "CC(=O)Oc1ccc(/C=C/C(=O)OCCCCCCCC[P+](c2ccccc2)(c2ccccc2)c2ccccc2)cc1OC(C)=O [CAP 8]",
    "qualifier-operator": "=",
    "result": 99.8
  },
  {
    "molecule": "CC(=O)Oc1ccc(/C=C/C(=O)OCCCCCC[P+](c2ccccc2)(c2ccccc2)c2ccccc2)cc1OC(C)=O [CAP 6]",
    "qualifier-operator": "=",
    "result": 74.2
  },
  {
    "molecule": "CC(=O)Oc1ccc(/C=C/C(=O)OCCCCCCCCCCCC[P+](c2ccccc2)(c2ccccc2)c2ccccc2)cc1OC(C)=O [CAP 12]",
    "qualifier-operator": "=",
    "result": 3120
  },
  {
    "molecule": "CC(=O)Oc1ccc(/C=C/C(=O)OCCCCCCCCCC[P+](c2ccccc2)(c2ccccc2)c2ccccc2)cc1OC(C)=O [CAP 10]",
    "qualifier-operator": "=",
    "result": 834
  }
]

###

System: Proteus mirabilis CCM 7188
run-description: Broth microdilution MIC and MBC
Assay type: cell-based
recorded-conditions: CCM7188, P. mirabilis CCM 7188, inactivating 99.9% of inoculum
compounds and their reported MBC
reported-property: MBC (µM)

[
  {
    "compound": "O=C(O)C=Cc1ccc(O)c(O)c1 [CA, 3-(3,4-dihydroxyphenyl)-2-propenoic acid, reference compound]",
    "result": 6940
  },
  {
    "compound": "CC(=O)Oc1ccc(/C=C/C(=O)OCCCCCCCCCCCC[P+](c2ccccc2)(c2ccccc2)c2ccccc2)cc1OC(C)=O [CAP 12]",
    "result": 404
  },
  {
    "compound": "CC(=O)Oc1ccc(/C=C/C(=O)OCCCCCCCCCC[P+](c2ccccc2)(c2ccccc2)c2ccccc2)cc1OC(C)=O [CAP 10]",
    "result": 419
  },
  {
    "compound": "CC(=O)Oc1ccc(/C=C/C(=O)OCCCCCC[P+](c2ccccc2)(c2ccccc2)c2ccccc2)cc1OC(C)=O [CAP 6]",
    "result": 453
  },
  {
    "compound": "CC(=O)Oc1ccc(/C=C/C(=O)OCCCCCCCC[P+](c2ccccc2)(c2ccccc2)c2ccccc2)cc1OC(C)=O [CAP 8]",
    "result": 435
  }
]

###

System: MCF-10A cell line (human mammary gland epithelial cells)
run-description: MTS cell proliferation/viability assay, control cells
Assay type: cell-based
recorded-conditions: MCF-10A control cells, 72 h

[
  {
    "molecule": "CC(=O)Oc1ccc(/C=C/C(=O)OCCCCCC[P+](c2ccccc2)(c2ccccc2)c2ccccc2)cc1OC(C)=O",
    "unit-abbrev": "µM",
    "qualifier-operator": "=",
    "IC50": 53.7
  },
  {
    "molecule": "CC(=O)Oc1ccc(/C=C/C(=O)OCCCCCCCCCCCC[P+](c2ccccc2)(c2ccccc2)c2ccccc2)cc1OC(C)=O",
    "unit-abbrev": "µM",
    "qualifier-operator": "=",
    "IC50": 33.7
  },
  {
    "molecule": "CC(=O)Oc1ccc(/C=C/C(=O)OCCCCCCCC[P+](c2ccccc2)(c2ccccc2)c2ccccc2)cc1OC(C)=O",
    "unit-abbrev": "µM",
    "qualifier-operator": "=",
    "IC50": 42.3
  },
  {
    "molecule": "CC(=O)Oc1ccc(/C=C/C(=O)OCCCCCCCCCC[P+](c2ccccc2)(c2ccccc2)c2ccccc2)cc1OC(C)=O",
    "unit-abbrev": "µM",
    "qualifier-operator": "=",
    "IC50": 31.1
  },
  {
    "molecule": "O=C(O)C=Cc1ccc(O)c(O)c1 [CA, 3-(3,4-dihydroxyphenyl)-2-propenoic acid, reference compound]",
    "unit-abbrev": "µM",
    "qualifier-operator": ">",
    "IC50": 300
  }
]

###

run-description: Equilibrium surface tension measurements (Wilhelmy plate)
Assay type: physicochemical
recorded-conditions: aqueous solution, 25 °C
Description: The physicochemical properties of the compounds were investigated by the measurements of surface tension of their aqueous solutions. The critical micelle concentration (cmc), the surface tension value at the cmc (γcmc), and the surface area per head group at the surface saturation (Acmc) were determined. The equilibrium surface tension measurements were carried out according to the procedure described previously. […] The values were recorded every 360 s. […]

[
  {
    "test-smiles": "CC(=O)Oc1ccc(/C=C/C(=O)OCCCCCCCCCC[P+](c2ccccc2)(c2ccccc2)c2ccccc2)cc1OC(C)=O",
    "γcmc (surface tension at the cmc) [mN·m^−1]": 37.1
  },
  {
    "test-smiles": "CC(=O)Oc1ccc(/C=C/C(=O)OCCCCCCCC[P+](c2ccccc2)(c2ccccc2)c2ccccc2)cc1OC(C)=O",
    "γcmc (surface tension at the cmc) [mN·m^−1]": 37.7
  },
  {
    "test-smiles": "CC(=O)Oc1ccc(/C=C/C(=O)OCCCCCCCCCCCC[P+](c2ccccc2)(c2ccccc2)c2ccccc2)cc1OC(C)=O",
    "γcmc (surface tension at the cmc) [mN·m^−1]": 39.4
  },
  {
    "test-smiles": "CC(=O)Oc1ccc(/C=C/C(=O)OCCCCCC[P+](c2ccccc2)(c2ccccc2)c2ccccc2)cc1OC(C)=O",
    "γcmc (surface tension at the cmc) [mN·m^−1]": 36.4
  }
]

###

Tested on: A. quina (AcaVNAK03)
run-description: Amoebicidal activity assay on trophozoites
Type: cell-based
recorded-conditions: Acanthamoeba quina, 24 h of incubation
// reported log10 EC50 for each item listed
reported-property: log10 EC50 (log10 of the value in µM)

[
  {
    "compound": "CC(=O)Oc1ccc(/C=C/C(=O)OCCCCCCCCCC[P+](c2ccccc2)(c2ccccc2)c2ccccc2)cc1OC(C)=O",
    "assay-target": "A. quina (AcaVNAK03)",
    "log10 EC50": 2.46
  },
  {
    "compound": "CC(=O)Oc1ccc(/C=C/C(=O)OCCCCCCCCCCCC[P+](c2ccccc2)(c2ccccc2)c2ccccc2)cc1OC(C)=O",
    "assay-target": "A. quina (AcaVNAK03)",
    "log10 EC50": 3.52
  },
  {
    "compound": "O=C(O)C=Cc1ccc(O)c(O)c1 [CA, 3-(3,4-dihydroxyphenyl)-2-propenoic acid, reference compound]",
    "assay-target": "A. quina (AcaVNAK03)",
    "log10 EC50": 3.48
  },
  {
    "compound": "CC(=O)Oc1ccc(/C=C/C(=O)OCCCCCCCC[P+](c2ccccc2)(c2ccccc2)c2ccccc2)cc1OC(C)=O",
    "assay-target": "A. quina (AcaVNAK03)",
    "log10 EC50": 1.97
  },
  {
    "compound": "CC(=O)Oc1ccc(/C=C/C(=O)OCCCCCC[P+](c2ccccc2)(c2ccccc2)c2ccccc2)cc1OC(C)=O",
    "assay-target": "A. quina (AcaVNAK03)",
    "log10 EC50": 1.64
  }
]

###

Notes on log10(MIC) obtained with Escherichia coli CCM 3954.
reported-property: log10(MIC) (log10 of the value in µM)

[
  {
    "molecule": "CC(=O)Oc1ccc(/C=C/C(=O)OCCCCCC[P+](c2ccccc2)(c2ccccc2)c2ccccc2)cc1OC(C)=O",
    "log10(MIC)": 2.36
  },
  {
    "molecule": "CC(=O)Oc1ccc(/C=C/C(=O)OCCCCCCCCCCCC[P+](c2ccccc2)(c2ccccc2)c2ccccc2)cc1OC(C)=O",
    "log10(MIC)": 2.91
  },
  {
    "molecule": "CC(=O)Oc1ccc(/C=C/C(=O)OCCCCCCCCCC[P+](c2ccccc2)(c2ccccc2)c2ccccc2)cc1OC(C)=O",
    "log10(MIC)": 2.62
  },
  {
    "molecule": "CC(=O)Oc1ccc(/C=C/C(=O)OCCCCCCCC[P+](c2ccccc2)(c2ccccc2)c2ccccc2)cc1OC(C)=O",
    "log10(MIC)": 2.64
  },
  {
    "molecule": "O=C(O)C=Cc1ccc(O)c(O)c1 [CA, 3-(3,4-dihydroxyphenyl)-2-propenoic acid, reference compound]",
    "log10(MIC)": 3.84
  }
]
